Target: T1, (7× His)-PSD-95-PDZ2 wild type (UniProt P78352 160-246)
T1 construct: domain: PDZ2; recombinant from E. coli; also called PSD-95-PDZ2 WT; not shown: 7x His tag
T1 sequence (P78352 160-246): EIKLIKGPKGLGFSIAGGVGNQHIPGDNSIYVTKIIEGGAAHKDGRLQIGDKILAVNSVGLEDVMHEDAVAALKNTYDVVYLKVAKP
Experiment: FP competition
quantity: Ki (µM)

{"binder": "THLETTFTGDGTPKTIXVTQPGQ (cyclic; D-Pro; N-methyl Arg 121) [cyclic nNOS β-hairpin peptide N-Me-R121]", "experimental-result": 0.99}
{"binder": "THLETTFTGDGTPKTIRVTXPGQ (cyclic; D-Pro; N-methyl Gln 124) [cyclic nNOS β-hairpin peptide N-Me-Q124]", "experimental-result": 2.2}
{"binder": "THLETTFTXDGTPKTIRVTQPGQ (cyclic; D-Pro; N-methyl Gly 113) [cyclic nNOS β-hairpin peptide N-Me-G113]", "experimental-result": 6.19}
{"binder": "THLETTFTGDGXPKTIRVTQPGQ (cyclic; D-Pro; N-methyl Thr 116) [cyclic nNOS β-hairpin peptide N-Me-T116]", "experimental-result": 0.93}
{"binder": "THLETTFTGDGTPKTIRXTQPGQ (cyclic; D-Pro; N-methyl Val 122) [cyclic nNOS β-hairpin peptide N-Me-V122]", "experimental-result": 6.17}
{"binder": "THLETTFTGDGTPKTXRVTQPGQ (cyclic; D-Pro; N-methyl Ile 120) [cyclic nNOS β-hairpin peptide N-Me-I120]", "experimental-result": 1.12}
{"binder": "THLETTFTGDGTPKXIRVTQPGQ (cyclic; D-Pro; N-methyl Thr 119) [cyclic nNOS β-hairpin peptide N-Me-T119]", "experimental-result": 4.88}
